Test system: Escherichia coli TOP10
Assay: shrunken log2 fold change of peptide-encoding DNA abundance (4.5 h post-induction vs induction); higher = less antimicrobial activity (less host growth inhibition)
Details: time post-induction: 4.5 h; library: site-saturation at positions 5, 18, 19, 20
I'd be grateful if you could share measured shrunken log2 fold change for these entries.
Give bare numbers.

RRIRVRPPRLPRPRPRPCAMPRP: -0.16
RRIRGRPPRLPRPRPRPNEEPRP: 0.621

Please go through the list and note shrunken log2 fold change for each sequence.
1. RRIRIRPPRLPRPRPRPGGHPRP
2. RRIRHRPPRLPRPRPRPPQRPRP
3. RRIRGRPPRLPRPRPRPGWLPRP
4. RRIRARPPRLPRPRPRPRYNPRP
5. RRIRGRPPRLPRPRPRPWQTPRP
6. RRIRCRPPRLPRPRPRPDQAPRP

1: -0.0701; 2: 0.248; 3: 1.17; 4: -0.487; 5: 0.174; 6: 0.288

Working through the 8 sequences below one at a time, give shrunken log2 fold change for each.
1. RRIRKRPPRLPRPRPRPQVIPRP
2. RRIRYRPPRLPRPRPRPRWAPRP
3. RRIRQRPPRLPRPRPRPIMSPRP
4. RRIRTRPPRLPRPRPRPKHGPRP
5. RRIRIRPPRLPRPRPRPLKVPRP
6. RRIRRRPPRLPRPRPRPAHQPRP
7. RRIRMRPPRLPRPRPRPTVFPRP
8. RRIRVRPPRLPRPRPRPCEYPRP

[0.108, -0.0106, 0.0933, -0.0288, -0.29, 0.732, 0.498, -0.00327]

Give shrunken log2 fold change for each of the items listed below.
1. RRIRPRPPRLPRPRPRPNRKPRP
2. RRIRLRPPRLPRPRPRPNMAPRP

[-0.371, -0.511]

I need shrunken log2 fold change for every entry listed below, if you could help.
1. RRIRDRPPRLPRPRPRPGFSPRP
2. RRIRNRPPRLPRPRPRPSEPPRP
3. RRIRQRPPRLPRPRPRPYLTPRP
4. RRIRSRPPRLPRPRPRPFTPPRP
5. RRIRCRPPRLPRPRPRPPKPPRP
6. RRIRARPPRLPRPRPRPMDGPRP

1. 0.0888
2. -0.0146
3. -0.209
4. -0.0114
5. 0.692
6. 0.211

Quick request: shrunken log2 fold change for each listed item, please.
1. RRIRVRPPRLPRPRPRPIQMPRP
2. RRIRMRPPRLPRPRPRPGLMPRP
3. RRIRHRPPRLPRPRPRPPELPRP
4. RRIRPRPPRLPRPRPRPSGYPRP
5. RRIRARPPRLPRPRPRPYESPRP
6. RRIRFRPPRLPRPRPRPHGTPRP

[-0.0987, 0.518, 0.469, -0.204, -0.103, -0.134]

Field: shrunken log2 fold change. Fill in for each record below.
1. RRIRCRPPRLPRPRPRPMGEPRP
2. RRIRSRPPRLPRPRPRPTFMPRP
3. RRIRGRPPRLPRPRPRPHPNPRP

[0.0249, -0.335, 0.547]

====

Tested on: Escherichia coli TOP10
Experiment: shrunken log2 fold change of peptide-encoding DNA abundance (4.5 h post-induction vs induction); higher = less antimicrobial activity (less host growth inhibition)
Conditions: time post-induction: 4.5 h; library: site-saturation at positions 5, 18, 19, 20
Label scheme for shrunken log2 fold change: lower than -0.06 is -1, -0.06 and above is 1.

Solved cases (5 shown):
RRIRFRPPRLPRPRPRPQIWPRP: 1
RRIRWRPPRLPRPRPRPPYLPRP: -1
RRIRYRPPRLPRPRPRPRHYPRP: -1
RRIRPRPPRLPRPRPRPLDNPRP: -1
RRIRMRPPRLPRPRPRPYLYPRP: -1

Determine whether measured shrunken log2 fold change meets or exceeds -0.06 for RRIRWRPPRLPRPRPRPYNNPRP -1

One more sequence: RRIRMRPPRLPRPRPRPGMNPRP 1

Let us now turn to RRIRARPPRLPRPRPRPHEGPRP 1

Also RRIRDRPPRLPRPRPRPQVNPRP ? -1

Okay, and RRIRPRPPRLPRPRPRPTEPPRP ? 1

Item: RRIRYRPPRLPRPRPRPDTRPRP -1

And for RRIRYRPPRLPRPRPRPMIKPRP ? 1

Proceed to RRIRVRPPRLPRPRPRPICHPRP -1

====

Task for the reader: assign each of the following sequences its reported shrunken log2 fold change.
Tested on: Escherichia coli TOP10
Assay: shrunken log2 fold change of peptide-encoding DNA abundance (4.5 h post-induction vs induction); higher = less antimicrobial activity (less host growth inhibition)
Conditions: time post-induction: 4.5 h; library: site-saturation at positions 5, 18, 19, 20
One number for each entry.

Please review the following examples before continuing.
RRIRMRPPRLPRPRPRPKRRPRP: 1.02
RRIRNRPPRLPRPRPRPKFAPRP: -0.0695
RRIRHRPPRLPRPRPRPQAMPRP: -0.00822
RRIRIRPPRLPRPRPRPHAEPRP: -0.217
RRIRPRPPRLPRPRPRPYHCPRP: -0.0484
RRIRTRPPRLPRPRPRPTHWPRP: 0.987
RRIRQRPPRLPRPRPRPNRAPRP: 0.025
RRIRWRPPRLPRPRPRPWQYPRP: -0.0277

Record shrunken log2 fold change per entry; entries follow.
1. RRIRYRPPRLPRPRPRPMCKPRP
2. RRIRSRPPRLPRPRPRPRWQPRP
3. RRIRSRPPRLPRPRPRPRASPRP

1: -0.368; 2: 0.166; 3: 0.346

Report shrunken log2 fold change for each item below.
1. RRIRDRPPRLPRPRPRPCKHPRP
2. RRIRMRPPRLPRPRPRPKWNPRP

[-0.181, 0.523]

Please go through the list and note shrunken log2 fold change for each sequence.
1. RRIRRRPPRLPRPRPRPWWLPRP
2. RRIRRRPPRLPRPRPRPQHNPRP

1. -0.00877
2. 0.0256

Dear colleague, could you please provide shrunken log2 fold change for the sequences listed below?
1. RRIRYRPPRLPRPRPRPVMFPRP
2. RRIRDRPPRLPRPRPRPMMCPRP
3. RRIRKRPPRLPRPRPRPIIMPRP
4. RRIRQRPPRLPRPRPRPMSAPRP
5. RRIRGRPPRLPRPRPRPKCWPRP
6. RRIRCRPPRLPRPRPRPLDSPRP
7. RRIRMRPPRLPRPRPRPMDKPRP
8. RRIRIRPPRLPRPRPRPTQPPRP

1. -0.899
2. -0.131
3. -0.419
4. -0.107
5. 1.09
6. -0.179
7. 0.3
8. -0.0427

====

Test system: Escherichia coli TOP10;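 note: peptides expressed intracellularly from a pBAD plasmid library in pooled LB shake-flask culture, induced with 0.3% L-arabinose, DNA abundance read by NGS, three biological replicates, DESeq2 with apeglm shrinkage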
Assay: shrunken log2 fold change of peptide-encoding DNA abundance (4.5 h post-induction vs induction); higher = less antimicrobial activity (less host growth inhibition)
Conditions: time post-induction: 4.5 h; library: site-saturation at positions 5, 18, 19, 20
QUANTITY NAME: shrunken log2 fold change
Numbers only.

RRIRIRPPRLPRPRPRPCRWPRP: 0.0527
RRIRWRPPRLPRPRPRPACRPRP: 0.258
RRIRQRPPRLPRPRPRPNNMPRP: -0.378

Below are some sequences; for each one, tell me its shrunken log2 fold change.
1. RRIRIRPPRLPRPRPRPFNRPRP
2. RRIRERPPRLPRPRPRPRFTPRP
3. RRIRCRPPRLPRPRPRPSWWPRP
4. RRIRWRPPRLPRPRPRPFNIPRP
5. RRIRERPPRLPRPRPRPPECPRP
6. RRIRVRPPRLPRPRPRPHCCPRP

0.0284
1.87
0.205
-0.715
0.0263
-0.147

Okay, here is my list. What is shrunken log2 fold change for each of these?
1. RRIRNRPPRLPRPRPRPYRCPRP
2. RRIRWRPPRLPRPRPRPSYQPRP
3. RRIRWRPPRLPRPRPRPASSPRP

1. -0.153
2. -1.04
3. -0.0381

Record shrunken log2 fold change per entry; entries follow.
1. RRIRTRPPRLPRPRPRPKFQPRP
2. RRIRSRPPRLPRPRPRPLDQPRP
3. RRIRYRPPRLPRPRPRPHYLPRP

1. 0.114
2. -0.0226
3. -0.285

Batch of 6 sequences: report shrunken log2 fold change for each.
1. RRIRPRPPRLPRPRPRPEFCPRP
2. RRIRGRPPRLPRPRPRPFLMPRP
3. RRIRCRPPRLPRPRPRPIVVPRP
4. RRIRERPPRLPRPRPRPLMAPRP
5. RRIRRRPPRLPRPRPRPPCQPRP
6. RRIRPRPPRLPRPRPRPYAKPRP

[0.18, 0.364, -0.34, -0.169, 0.767, 0.258]
